Source of measurements: patent US20150111251A1

TESTED TARGET: T1, Recombinant Human TNF-α/TNFSF1A (human, UniProt P01375 77-233)
T1 construct: also called hTNF-α; huTNFα
T1 sequence (P01375 77-233 limits assumed): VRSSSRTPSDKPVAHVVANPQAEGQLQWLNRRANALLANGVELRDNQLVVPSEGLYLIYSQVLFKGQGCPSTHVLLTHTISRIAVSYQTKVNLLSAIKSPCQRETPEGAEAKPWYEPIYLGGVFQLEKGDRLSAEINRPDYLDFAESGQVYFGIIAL
PROCEDURE SUMMARY: SPR (BIACORE), antibody captured, TNFα in solution
pKd: −log10 of the molar value.
REPORTED ENDPOINT: pKd

- AB370 (antibody, V domains shown, Full-length humanized antibody made in HEK 293-6E; also called hMAK199VH.2/hMAK199VL.1a) VH: EVQLVQSGAEVKKPGASVKVSCKASGYTFTNYGMNWVRQAPGQGLEWMGWINTYTGEPTYADDFKGRVTMTTDTSTSTAYMELSSLRSEDTAVYYCARKFLTTVVVTDYAMDYWGQGTTVTVSS VL: DIQMTQSPSSLSASVGDRVTITCRASQDISNYLNWYQQKPGKTVKLLIYYTSRLQSGVPSRFSGSGSGTDYTLTISSLQPEDFATYFCQQGNTLPPTFGQGTKLEIK: 8.96
- AB385 (antibody, V domains shown, Full-length humanized antibody made in HEK 293-6E; also called hMAK199VH.2b/hMAK199VL.2a) VH: EIQLVQSGAEVKKPGASVKVSCKASGYTFTNYGMNWVRQAPGQGLEWMGWINTYTGEPTYADDFKGRVTFTTDTSTSTAYMELSSLRSEDTAVYYCARKFLTTVVVTDYAMDYWGQGTTVTVSS VL: DIVMTQSPAFLSVTPGEKVTITCRASQDISNYLNWYQQKPDQTVKLLIYYTSRLQSGVPSRFSGSGSGTDYTFTISSLEAEDAATYFCQQGNTLPPTFGQGTKLEIK: 8.66
- AB379 (antibody, V domains shown, Full-length humanized antibody made in HEK 293-6E; also called hMAK199VH.2a/hMAK199VL.2a) VH: EIQLVQSGAEVKKPGASVKVSCKASGYTFTNYGMNWVRQAPGQGLEWMGWINTYTGEPTYADDFKGRFTFTLDTSTSTAYMELSSLRSEDTAVYFCARKFLTTVVVTDYAMDYWGQGTTVTVSS VL: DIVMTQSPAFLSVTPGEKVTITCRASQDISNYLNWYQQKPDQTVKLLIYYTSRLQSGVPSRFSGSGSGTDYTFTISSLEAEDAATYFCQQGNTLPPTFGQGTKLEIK: 8.74
- AB368 (antibody, V domains shown, Full-length humanized antibody made in HEK 293-6E; also called hMAK199VH.1b/hMAK199VL.2b) VH: EVQLVQSGSELKKPGASVKVSCKASGYTFTNYGMNWVRQAPGQGLEWMGWINTYTGEPTYADDFKGRFVFSLDTSVSTAYLQISSLKAEDTAVYFCARKFLTTVVVTDYAMDYWGQGTTVTVSS VL: DIVMTQSPAFLSVTPGEKVTITCRASQDISNYLNWYQQKPDQAPKLLIYYTSRLQSGVPSRFSGSGSGTDYTFTISSLEAEDAATYYCQQGNTLPPTFGQGTKLEIK: 9.00
- AB366 (antibody, V domains shown, Full-length humanized antibody made in HEK 293-6E; also called hMAK199VH.1b/hMAK199VL.2) VH: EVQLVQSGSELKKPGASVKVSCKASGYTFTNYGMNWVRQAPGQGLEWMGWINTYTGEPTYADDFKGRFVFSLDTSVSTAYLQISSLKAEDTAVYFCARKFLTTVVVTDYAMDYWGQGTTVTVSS VL: DVVMTQSPAFLSVTPGEKVTITCRASQDISNYLNWYQQKPDQAPKLLIKYTSRLQSGVPSRFSGSGSGTDFTFTISSLEAEDAATYYCQQGNTLPPTFGQGTKLEIK: 9.03
